- test_system: T1, mouse GDF-15 (mouse, UniProt Q9Z0J7 189-303)
- T1 construct: also called mGDF-15
- T1 sequence: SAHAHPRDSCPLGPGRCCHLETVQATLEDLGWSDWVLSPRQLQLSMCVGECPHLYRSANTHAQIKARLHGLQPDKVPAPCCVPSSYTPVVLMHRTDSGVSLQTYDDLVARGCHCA
- procedure_details: HTRF binding assay, biotinylated antigen, titration of antibody

binder	binding result
AB1170069 (antibody, V domains shown) VH: QVQLQQSGPELVKPGASVKLSCKASGYTFTSYDINWVKQRPGQGLEWIGWIYPRDGISKYNEKFEGKATLTVDTSSSTAYMELHSLTSEDSAVYFCAGTSDPAYFDYWGQGTTLTVSS VL: DIVLTQSPATLSVTPGDRVSLSCRASQSISYYLHWYQQKSHESPRLLIKYASQSISGIPSRFSGSGSGTDFTLSINSVETEDFGMYFCQQSNSWPYTFGGGTKLEIK	binds
AB1170148 (antibody, V domains shown) VH: QVQLQQPGAELVRPGTSVKLSCKASGYTFTSYWMHWVKQRPRQGLEWIGLIDPSDNYTNYNQNFKGKATLTVDTSSSTAYMQLGSLTSEDSAVYYCASYDGYSTPSAMDYWGQGTSVTVSS VL: QIVLSQSPAILSASPGEKVTMTCRASSSVNYMHWYQQKPGSSPKPWIYATSNLASGVPARFSGSGSGTSYSLIISRVEAEDAAAYYCQQWSSYPPTFGGGTKLEIK	binds
AB1170036 (antibody, V domains shown) VH: DVKLVESGEGLVKPGGSLKLSCAASGFTFSSYAMSWVRQTPEKRLEWVAYISSGGDNIYYADTVKGRFTISRDNARNTLYLQMSSLKSEDTAMYYCTRALVENAYFDYWGQGTTLTVSS VL: DSVLTQSPASLLVSLGQRATISCRASKSVSTSTYSYMHWYQQKPGQPPKLLIKYASYLESGVPARFSGSGSGTDFTLNIHPVEEEDAATYYCQHSREFPWTFGGGTKLEIK	binds
